Every entry's value here was drawn from the supplement of paper PMC10567573.

B1: INTS4 (parent)
chain: TIIEPAGESDNPLRFTSGLVVALD

- Variants of: B1
- Assay Details: protein stability index of a GFP-peptide fusion (GPS, HEK-293T) (PSI 1-6); higher = more stable;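 also: lentivirally expressed fusions sorted by FACS into six bins by GFP to DsRed ratio, PSI derived from sequencing read proportions per bin multiplied by bin number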
- Experimental Conditions: c terminus: a fixed tail appended
Everything with protein stability index lower than 3 is label 0; everything else, including exactly 3, is label 1.

Check if protein stability index >= 3 (inclusive). Item: E8I
label 0

Then this variant: P5F
label 0

Then this variant: I3Q
label 1

Then this variant: I2E
label 1

Then this variant: V20L
label 0

Then this variant: L13W
label 1

Then this variant: F15I
label 1

Then this variant: L23N
label 1

Then this variant: G18H
label 0

Then this variant: T1W
label 0

Then this variant: E8K
label 0

Then this variant: E8C
label 0

Then this variant: D24G
label 0

Then this variant: F15Q
label 1

Then this variant: A22C
label 0

Then this variant: E8Q
label 0

Then this variant: V21W
label 0

Then this variant: P12Y
label 0

Then this variant: T1F
label 0

Then this variant: T1K
label 0

Then this variant: I2T
label 1

Then this variant: E4F
label 0

Then this variant: N11V
label 0

Then this variant: S9G
label 0

Then this variant: L13Y
label 1

Then this variant: N11L
label 0

Then this variant: R14I
label 0

Then this variant: L13D
label 1

Then this variant: R14W
label 0

Then this variant: V20P
label 1

Then this variant: P5W
label 0

Then this variant: V21Q
label 1

Then this variant: D24R
label 0

Then this variant: T16A
label 0
